# Test system: human and rat GPR-14
# Protocol notes: Radioligand binding ([125I] h-U-II)
# Recorded conditions: radioligand binding assay; HEK-293 cell membranes, 200 pM [125I] h-U-II; species (human or rat) not given
# From the text: […]
pKi: −log10 of the molar value.
Quantity kind: pKi

{"columns": ["Compound", "Value measured"],
 "data": [
  ["O=C(NC1CCN(S(=O)(=O)c2cc(Cl)c(OC3CCNCC3)c(Cl)c2)C1)c1ccc(Cl)c(Cl)c1 (stereo not shown)", 5.82]
]}
